Value source: PubChem BioAssay (EPA / NIEHS)

Read-out: Fatty Acid-Binding Protein 1 (FABP1), FABP1 (gene 2168)
measurement-description: LTEA_HepaRG_FABP1: Life Technologies and Expression Analysis (LTEA) Assay for Fatty Acid-Binding Protein 1 (FABP1) using HepaRG (AID 2283494)
conditions-used: mRNA level, 48 h; actives raise or lower the signal
Active and inactive are the calls of the source. How the source made its calls: active means hit-call score of the fitted dose curve at least 0.9, where 1 is the maximum; inactive means score below 0.9.
Outcomes: y for active, n for inactive

• O=S(=O)(O)c1ccc(N=Nc2c(O)ccc3cc(S(=O)(=O)O)ccc23)cc1 = n
• CCCC(CCC)C(=O)O = n
• OCCOCCOCCO = n
• O=C(O)[C@H](O)[C@@H](O)C(=O)O = n
• CCCc1ccccc1 = n
• CCCOc1ccc(S(=O)(=O)N2CCN(CC)CC2)cc1-c1nc2c(CC)n(Cc3ccccn3)nc2c(=O)[nH]1 = y
• CCCCCCCCCCCCCCO = n
• CCCCCOC(C)=O = n
• OC[C@H]1O[C@@](CO)(O[C@H]2O[C@H](CO)[C@@H](O)[C@H](O)[C@H]2O)[C@@H](O)[C@@H]1O = n
• CCCCCCCC/C=C\CCCCCCCC(=O)OC[C@@H](O)[C@H]1OC[C@H](O)[C@H]1O = n
• O=c1[nH]cnc2c1ncn2[C@H]1CC[C@@H](CO)O1 = n
• CCCCCCCCCC = n
